// values below are reported median fluorescence, fold over isotype
targetEntity: SARS-CoV Spike protein (full length Spike, coupled to optically encoded beads) (SARS-CoV, UniProt P59594 14-1190)
propertyLabel: median fluorescence, fold over isotype (fold over isotype)

binder	outputUnit	number
anti-SARS-CoV-2 antibody 412 (antibody, V domains shown) VH: QVQLVQSGAEVKKPGASVKVSCKASGYTFTSYGISWVRQAPGQGLEWMGWISAYNGNTNYAQKLQGRVTMTTDTSTSTAYMELRSLRSDDTAVYYCARVTVEAIFGVVILPLKNWFDPWGQGTLVTVSS VL: QSVLTQPPSVSGAPGQRVTISCTGSSSNIGAGYDVHWYQQLPGTAPKLLIYGNSNRPSGVPDRFSGSKSGTSASLAITGLQAEDEADYYCQSYDSSLTLYVFGTGTKVTVL	fold over isotype	1.09
anti-SARS-CoV-2 antibody 404 (antibody, V domains shown) VH: QVQLVESGGGVVQPGRSLRLSCAASGFTFSSYGMHWVRQAPGKGLEWVAVIWYDGSNKYYADSVKGRFTISRDNSKNTLYLQMNSLRAEDTAVYYCARLAVDISFDGSDGMDVWGQGTTVTVSS VL: SYELTQPPSVSVSPGQTARITCSGDALPKKYAYWYQQKSGQAPVLVIYEDSKRPSGIPERFSGSSSGTMATLTISGAQVEDEADYYCYSTDSSGKGVFGTGTKVTVL	fold over isotype	1.04
anti-SARS-CoV-2 antibody 409 (antibody, V domains shown) VH: QVTLRESGPALVKPTQTLTLTCTFSGFSLSTSGMCVSWIRQPPGKALEWLALIDWDDDKYYSTSLKTRLTISKDTSKNQVVLTMTNMDPVDTATYYCARTTYYYVSGRRAEFDPWGQGTLVTVSS VL: NFMLTQPHSVSESPGKTVTISCTGSSGSIASNYVQWYQQRPGSAPTTVIYEDNQRPSGVPDRFSGSIDSSSNSASLTISGLKTEDEADYYCQSYDSSNQGVFGGGTKLTVL	fold over isotype	1.03
